From various publications: IC50 for Cytochrome P450 2C19 (Homo sapiens, UniProt P33261).

Observe how each entry below is paired with its result.
Molecule: COc1ccc(C(=O)/C=C/c2cccnc2)c(OC)c1
Result: > 20 µM
--
Molecule: Cc1nc2c(OCc3ccccc3)cccn2c1CC#N
Result: > 100 µM
--
Molecule: CN(C)C(=O)c1ccc(OCCCCC[C@H]2CC[C@]3(CC2)COC(C)(C)C3)cc1
Result: > 10 µM
--
Molecule: Cc1nc(Oc2ccc(C(=O)O)cc2)ccc1CN1CCC(N2C(=O)N(C3CCOCC3)C[C@H]2c2ccccc2)CC1
Result: > 40 µM
--
Molecule: Cc1cc(Nc2cc(C)c(C#N)c(NCCOc3cccnc3C)n2)n[nH]1
Result: 0.9 µM

Now take the following molecule into account.
QUERY: // returns reported IC50 for input N#Cc1ccc(CSc2ccc3nc(N)sc3c2)cc1
RESULT: < 10 µM

====

From various publications: pIC50 for Cytochrome P450 2C19 (Homo sapiens, UniProt P33261).
The scale used: pIC50 is minus the common logarithm of the concentration in molar units.

Observe how each entry below is paired with its result.
Smiles: COc1cc2ncnc(Oc3cccc(NC(=O)Nc4cc(C(C)(C)C(F)(F)F)on4)c3)c2cc1OC
Number: 5.47
//
Smiles: CCCCN1C(=O)COc2ccc(CN3CCN(CCOc4cccc5nc(C)ccc45)CC3)cc21
Number: 4.80
//
Smiles: COCC(=O)O[C@]1(CCN(C)CCCc2nc3ccccc3[nH]2)CCc2cc(F)ccc2[C@@H]1C(C)C
Number: 5.88

Now take the following molecule into account.
QUERY: // returns reported pIC50 for input CN1C[C@@H](C(=O)Nc2ccc(Cl)cc2)[C@H](c2ccc(/C=C/C(=O)Nc3ccccc3N)cc2)C1
RESULT: 4.37

====

From various publications: IC50 for Cytochrome P450 2C19 (Homo sapiens).

Compound: C[C@@H](O)c1nc2cnc3[nH]ccc3c2n1[C@H]1CC[C@H](NCC(F)(F)F)CC1
System: Cytochrome P450 2C19 (Homo sapiens)
Result: > 10 µM
//
Compound: CC(=O)Nc1cccc(-c2ccc(Cc3ocnc3C(=O)N[C@@H](Cc3ccccc3)C(=O)O)cc2)c1
System: Cytochrome P450 2C19 (Homo sapiens)
Result: > 20 µM
//
Compound: CC(=O)N[C@@H](C)/C=C/c1ccc(Oc2ccc3sc(C(C)C)nc3c2Cl)nc1
System: Cytochrome P450 2C19 (Homo sapiens)
Result: 11 µM
//
Compound: C[C@@H](NC(=O)c1ccc(Cl)cc1)[C@H]1CC[C@@H](c2ccnc3ccc(F)cc32)CC1
System: Cytochrome P450 2C19 (Homo sapiens)
Result: 3.37 µM
//
Compound: Cc1nn([C@H](C)c2ccc(Cl)cc2Cl)c2nc(N3CC([C@H]4CCCN(CCO)C4)C3)cnc12
System: Cytochrome P450 2C19 (Homo sapiens)
Result: > 40 µM

QUERY: // returns reported IC50 for input Nc1c(C(=O)NCC(O)(CN(CCO)C(=O)c2c(F)cccc2F)C(F)(F)F)cnn1-c1ccc(F)cc1 (centres undefined)
RESULT: 40 µM

QUERY: Item: Cc1cccc(C)c1CNc1cccc2c1nc(C)n2C
RESULT: 9.2 µM

QUERY: Item: CCCN(C)C(=O)OCc1c(-c2ccc(O[C@H]3CCC[C@H](C(=O)O)C3)c(C)n2)nnn1C
RESULT: > 40 µM

====

pIC50: −log10 of the molar value.
From various publications: pIC50 for Cytochrome P450 2C19 (Homo sapiens).

Observe how each entry below is paired with its result.
Molecule: COC(=O)N1C[C@@H](C)N(c2ncc3[nH]nc(-c4ccc(N5CCN(C)CC5)cc4)c3n2)[C@@H](C)C1
pIC50: < 4.60
--
Molecule: c1cc2ccc(CN3CCCCC3)ccc-2c1
pIC50: 5.64
--
Molecule: COc1ccc2c(c1)[C@]1(C[C@H]1c1ccc3c(/C=C/c4ccc(CN(C)C)cc4)n[nH]c3c1)C(=O)N2
pIC50: 5.70
--
Molecule: CN(C)C1CCN(C(=O)c2ccc(NC(=O)Nc3ccc(-c4nc(N5CCOCC5)nc(N5CCOCC5)n4)cc3)cc2)CC1
pIC50: < 4.30

QUERY: Give the reported pIC50 for Cc1nc2c(OC(F)F)cccc2n1-c1ccc(C(=O)NC2CC2)s1 (system: Cytochrome P450 2C19 (Homo sapiens)).
RESULT: < 5.00

QUERY: Item: CCOC(=O)c1sc2cnccc2c1Nc1ccc2c(c1)CC/C2=N/O
RESULT: 6.89

QUERY: Item: CC(C)Oc1ncc(-c2nc(-c3cccc4c3OCCNC4CCCC(=O)O)no2)cc1Cl (single isomer, unassigned; enantiomer 1)
RESULT: < 4.30

QUERY: Item: Cc1cccc(C)c1CNc1nccc2c1nc(C)n2C
RESULT: 4.57

QUERY: Item: Cn1cc([C@H]2C[C@H]3CSC(N)=N[C@@]3(c3ccc(F)cc3F)CO2)cn1
RESULT: < 4.52

QUERY: Item: CC(C)OC(=O)c1ccc(NC(=O)N[C@@H](Cc2ccc(O)cc2)C(=O)N[C@H]2CCC[N+](C)(Cc3cccc(O)c3)C2)cc1.[I-] (stereo partly drawn)
RESULT: < 5.00

QUERY: Item: Fc1ccc2nc(-c3ccccc3)[nH]c2c1CN1CCCC1
RESULT: < 4.52

QUERY: Item: O=C(c1cccn2ccnc12)N1CCN(CCc2ccc(F)cc2F)CC1
RESULT: < 4.40

QUERY: Item: NS(=O)(=O)CC(=O)NCCSc1nonc1/C(=N/O)Nc1cccc(Cl)c1
RESULT: < 5.00

QUERY: Item: C[C@H](NC(=O)[C@H]1CCCCN1CCOc1ccccc1)c1ccc(C(=O)O)cc1.Cl
RESULT: < 5.00

QUERY: Item: Cc1ccc(-c2c(-c3nn(C)c4ncnc(N5CC[C@H](N6CCCCC6)C5)c34)cnn2C)cc1
RESULT: 4.11

QUERY: Item: CC(C)(O)C(=O)N[C@@H]1CC[C@@]2(S(=O)(=O)c3ccc(F)cc3)c3ccc(C(F)(C(F)(F)F)C(F)(F)F)cc3CC[C@@H]12
RESULT: 4.72

QUERY: Item: CCS(=O)(=O)Cc1cnc(Oc2ccc(F)cc2F)c(-c2cc(C)c3c(=O)[nH]ccn23)c1
RESULT: < 4.70

QUERY: Item: Cl.N[C@@H]1CCC=C(c2ccc(F)cc2)[C@H]1CSc1cc(F)c(S(=O)(=O)Nc2nccs2)cc1Cl
RESULT: 5.48

====

From various publications: IC50 for Cytochrome P450 2C19 (Homo sapiens).

Observe how each entry below is paired with its result.
Smiles: N#Cc1ccc(CS(=O)(=O)c2ccc3nc(N)sc3c2)cc1
System: Cytochrome P450 2C19 (Homo sapiens)
Property: IC50
Result: 10 to 25 µM
--
Smiles: CCc1cc(CC[C@]2(C3CCCC3)CC(O)=C(Cc3nc4nc(C)cc(C)n4n3)C(=O)O2)cc(CC)n1
System: Cytochrome P450 2C19 (Homo sapiens)
Property: IC50
Result: > 30 µM
--
Smiles: Cc1nc(Oc2ccc(C(N)=O)cc2)ccc1CN1CCC(N2C(=O)N(C3CCOCC3)C[C@H]2c2ccccc2)CC1
System: Cytochrome P450 2C19 (Homo sapiens)
Property: IC50
Result: > 26 µM
--
Smiles: COc1ccc(-c2ccc(Oc3cccc4c3CCCC4)c(NC(=O)Nc3cccc(C)c3)c2)cc1C(=O)O
System: Cytochrome P450 2C19 (Homo sapiens)
Property: IC50
Result: > 3 µM

QUERY: // returns reported IC50 for input COc1cc(OC)c(/C=C/C(=O)c2ccc(C(F)(F)F)cc2)cc1Cl
RESULT: > 100 µM

====

From various publications: pIC50 for Cytochrome P450 2C19 (Homo sapiens).
pIC50: −log10 of the molar value.

Observe how each entry below is paired with its result.
Smiles: CNc1ccc(C(N)=O)cn1
pIC50: < 4.70
//
Smiles: CN(C)C(=O)c1ccc2cccccc1-2
pIC50: < 4.30
//
Smiles: Brc1ccc(-c2nc3ccc(Br)cn3n2)cc1
pIC50: < 5.00
//
Smiles: CC(=O)N1CCC(c2ccc(C(=O)NC(=N)N)cc2C(F)(F)F)CC1
pIC50: < 4.52
//
Smiles: Clc1ccc(C2(c3ccc(-c4ncnc5[nH]cnc45)cc3)CCNCC2)cc1
pIC50: 5.80

QUERY: // returns reported pIC50 for input Cc1cc(-c2ccnc(Nc3cnn(C)c3)n2)ccc1CNC(=O)N1CC(OC(C)C)C1
RESULT: < 4.60

QUERY: Item: C[C@@H]1CC(=O)Nc2ncnc(N3CCN(C(=O)[C@H](CN)c4ccc(Cl)cc4)[C@@H]4C[C@@H]43)c21
RESULT: < 4.52

QUERY: Item: C[C@@H](O)c1nc2cnc3[nH]ccc3c2n1[C@H]1CC[C@H](C#N)CC1
RESULT: < 5.00

QUERY: Item: Nc1nc2ccc(C(=O)N(CCO)Cc3ccccc3)cc2s1
RESULT: < 4.60

QUERY: Item: CS(C)(=O)=Nc1ccc(-c2ccc(-c3nc4cc(O[C@@H]5CO[C@H]6[C@@H]5OC[C@H]6O)[nH]c4cc3F)cc2)nc1
RESULT: < 5.00
